The compounds below each have a reported IC50 tested on UniProt:P00742; the values come from various publications.
Could you please classify the records by IC50 using these ranges: range 1 = under 0.006 µM, range 2 = from 0.006 µM up to 3 µM, range 3 = 3 µM and over

Here are 6 compounds together with their reported answers.
{"COMPOUND": "CC(C)C[C@@H](NC(=O)c1ccc(Cl)s1)C(=O)Nc1ccc(N2CCCCC2=N)cc1", "LABEL": "range 2"}
{"COMPOUND": "NCCCCNC(=O)Cn1c(=O)c(NS(=O)(=O)Cc2ccccc2)cc2ccccc21", "LABEL": "range 3"}
{"COMPOUND": "N=C(N)NCCCCCNC(=O)c1cc(NS(=O)(=O)Cc2ccccc2)ccc1Sc1ccccc1", "LABEL": "range 3"}
{"COMPOUND": "CC(C)CN(Cc1cccc(C(=N)N)c1)C(=O)C(=O)Nc1ccc(-c2ccccc2S(=O)(=O)NC(C)(C)C)cc1", "LABEL": "range 2"}
{"COMPOUND": "CC(C)Nc1ncc(-c2cc(N)cc(NC(=O)CCc3ccccc3)c2)n(CC(=O)NCc2ccc(C(=N)N)cc2)c1=O", "LABEL": "range 3"}
{"COMPOUND": "COc1cc(CNC(=O)c2cccc(NS(=O)(=O)c3ccccc3)c2)ccc1O", "LABEL": "range 3"}

# classify by IC50 band: N=C(N)c1ccc(CNC(=O)Cn2c(CCc3ccccc3)ccc(NS(=O)(=O)Cc3ccccc3)c2=O)cc1
range 3

Which category does the recorded IC50 put O=C(Cc1c(F)ccc(NS(=O)(=O)Cc2ccccc2)c1F)NCC1CCNCC1 in?
range 3

Form: Item = Cc1ncc(CNc2ccc(-c3ccccc3S(N)(=O)=O)cc2)c(CO)c1OCc1cccc(C(=N)N)c1 ; Class = ?
range 3

Using the reported IC50, which band applies to COc1nn([C@@H](Cc2ccccc2)C(=O)Nc2ccc(C(=O)O)cc2)c(=O)cc1-c1cc(Cl)ccc1C(C)=O ?
range 3

Class? Entry: O=C(NC[C@H]1CN(c2ccc(-n3cccc(CO)c3=O)cc2F)C(=O)O1)c1ccc(Cl)s1
range 1

Assign a category based on measured IC50 for CC(C)N1CCc2nc(C(=O)N[C@@H]3CC(CO)C[C@H]3NC(=O)c3cc4cc(Cl)ccc4[nH]3)sc2C1 (single isomer, unassigned; stereoisomer b) and give only the class name.
range 1

* * *

// cross-study collection: IC50 for Coagulation factor X (Homo sapiens, UniProt P00742)
The figure you give is taken to be in µM; do not add the unit.

The cases that follow already have their IC50 on record.
{"COMPOUND": "COC(=O)C(Cc1ccc2ccc(C(=N)N)cc2c1)N1CCc2cc(OC3CCN(C(=N)N)CC3)ccc2C1=O (stereo not drawn)", "RECORDED_ENDPOINT": "IC50", "READOUT_VALUE": 0.693}
{"COMPOUND": "N=C(N)c1ccc(-c2ccc(Cn3c(=O)ccc4cc(OC5CCNCC5)ccc43)cc2)cc1", "RECORDED_ENDPOINT": "IC50", "READOUT_VALUE": 70}

# return recorded IC50 for input CSCCC(NC(=O)Nc1ccccc1)C(=O)Nc1ccc(-c2ccccc2S(C)(=O)=O)cc1 (stereo not drawn)
2.3

Supply recorded IC50 for CN(CC(=O)Nc1ccc(-c2ccccc2S(N)(=O)=O)cc1)c1cccc(C(=N)N)c1 here.
0.01

Return IC50 for the following compound: COC(=O)c1ccc(NC(=O)Cn2cc(C(=N)N)c3cccc(C(=O)NCc4ccc(O)c(O)c4)c32)cc1
82

For the compound N=C(N)c1ccc(C(=O)Nc2ccc3c(c2)OCC(=O)N3Cc2ccc3ccc(C(=N)N)cc3c2)cc1 , give its measured IC50 value.
10.1

Indicate its recorded IC50; the compound in question is Cn1c(=O)n(Cc2ccc3ccc(C(=N)N)cc3c2)c2cc(OC3CCN(C(=N)N)CC3)ccc21
0.032
